Test system: collagen Iα1 expression in proximal tubular cells (mProx24)
Experiment: Inhibitory effect on collagen Iα1 expression in proximal tubular cells (hTGF-β1 stimulated, real-time PCR)
Format: cell-based
Conditions: Mus musculus, Col1; 0.01 μM compound, mProx24, 5 ng/ml hTGF-β1 6 hrs; relative to hTGF-β1 alone = 1; read-out: Mean expression level ratio of collagen Iα1 (Col1α) to 18S rRNA
assay-readout: mrna remaining at 0.01 µM
Number first, unit second: that is the form wanted.

Oc1cc(-c2ccc(-c3ccccc3)cc2)nn1-c1ncccn1 [Compound 18-186]
82.5%
Oc1cc(-c2cccc(I)c2)nn1-c1ccccn1 [Compound 18-082]
71%
CC(=O)Oc1cc(-c2ccc(Br)cc2)nn1-c1ccccn1 [Compound 18-067]
70%
CCCc1c(/C=C/c2ccc(O)c(OC)c2)nn(-c2ccccn2)c1O [Compound 18-273]
40.8%
CCCc1c(-c2ccccc2)nn(-c2ccccn2)c1O.Cl [Compound 18-278]
82.1%
Oc1cc(-c2ccc(Br)cc2)nn1-c1ccccn1 [Compound 18-066]
78.5%
c1ccc(COc2c(Cc3ccccc3)c(-c3ccccc3)nn2-c2ccccn2)cc1 [Compound 18-233, reference compound]
93.3%
Oc1cc(COc2ccc3ccccc3c2)nn1-c1ccccn1 [Compound 18-095]
69.9%
COc1cccc(-c2cc(O)n(-c3ccccn3)n2)c1 [Compound 18-001]
74.8%

// next item, mrna remaining at 0.01 µM requested
Entry under review: Oc1cc(-c2ccccc2-c2ccc3c(c2)OCO3)nn1-c1ccccn1 [Compound 18-177] . Reported mrna remaining at 0.01 µM? 96%

The reported numbers originate from patent US10047067B2.
